Reference source: patent US20040235710A1

Molecular target: human GLP-1 receptor (human, UniProt P43220)
Assay: cell-based or functional assay
measured-property: GLP-1 receptor activation relative to Val^8-GLP-1(7-37)OH (relative potency)
Please state the figure in relative potency; there is no need to write the unit.

Requested field: GLP-1 receptor activation relative to Val^8-GLP-1(7-37)OH. Item: HVEGTWTSDVSSYLEGQAAKEFIAWLVKGRG [Val^8-Trp^12-GLP-1(7-37)OH]
1.1

Requested field: GLP-1 receptor activation relative to Val^8-GLP-1(7-37)OH. Item: HVEGTFTSDVSSYLEEQALKEFIAWLVKGRG [Val^8-Glu^22-Leu^25-GLP-1(7-37)OH]
2.8

Requested field: GLP-1 receptor activation relative to Val^8-GLP-1(7-37)OH. Item: HVEGTFTSDVSSYLEEQAIKEFIAWLVKGRG [Val^8-Glu^22-Ile^25-GLP-1(7-37)OH]
3.1

Requested field: GLP-1 receptor activation relative to Val^8-GLP-1(7-37)OH. Item: HVEGTFTSDVSSFLEEQAAKEFIAWLVKGRG [Val^8-Phe^19-Glu^22-GLP-1(7-37)OH]
1.5

Requested field: GLP-1 receptor activation relative to Val^8-GLP-1(7-37)OH. Item: HVDGIFTSDYSSYLEEQAAKEFIAWLVKGRG [Val^8-Asp^9-Ile^11-Tyr^16-Glu^22-GLP-1(7-37)OH]
4.3

Requested field: GLP-1 receptor activation relative to Val^8-GLP-1(7-37)OH. Item: HVEGTYTSDVSSYLEGQAAKEFIAWLVKGRG [Val^8-Tyr^12-GLP-1(7-37)OH]
1.7

Requested field: GLP-1 receptor activation relative to Val^8-GLP-1(7-37)OH. Item: HVEGTFTSDVSSYFEEQAAKEFIAWLVKGRG [Val^8-Phe^20-Glu^22-GLP-1(7-37)OH]
2.7
